# Target entity: Integrin alpha-4/beta-1 (Homo sapiens, UniProt P05556+P13612)
# Protocol details: Dissociation from Very late antigen 4 (VLA-4)
# Format: protein-complex assay

Smiles code	Measurement units	Bound
COc1cccc(OC)c1-c1ccc(C[C@H](NC(=O)[C@]2(C)CCCN2S(=O)(=O)c2cc(Cl)cc(Cl)c2)C(=O)O)cc1	%	1
O=C(Nc1ccc(C[C@H](NC(=O)[C@@H]2CCCN2S(=O)(=O)c2cccc(Cl)c2)C(=O)O)cc1)c1c(Cl)cncc1Cl	%	37
C[C@@]1(C(=O)N[C@@H](Cc2ccc(NC(=O)c3c(Cl)cccc3Cl)cc2)C(=O)O)CCCN1S(=O)(=O)c1cc(Cl)cc(Cl)c1	%	15
C[C@@]1(C(=O)N[C@@H](Cc2ccc(NC(=O)C3=C(Cl)CC(=O)N=C3Cl)cc2)C(=O)O)CCCN1S(=O)(=O)c1cc(Cl)cc(Cl)c1	%	61
C[C@@]1(C(=O)N[C@@H](Cc2ccc(NC(=O)c3cnccc3Cl)cc2)C(=O)O)CCCN1S(=O)(=O)c1cc(Cl)cc(Cl)c1	%	26
C[n+]1ccc(C(=O)Nc2ccc(C[C@H](NC(=O)[C@]3(C)CCCN3S(=O)(=O)c3cc(Cl)cc(Cl)c3)C(=O)O)cc2)c(Cl)c1	%	0
COc1cc(CN2CCCC2)cc(OC)c1-c1ccc(C[C@H](NC(=O)[C@]2(C)CCCN2S(=O)(=O)c2cc(Cl)cc(Cl)c2)C(=O)O)cc1	%	43
C[n+]1cc(Cl)c(C(=O)Nc2ccc(C[C@H](NC(=O)[C@]3(C)CCCN3S(=O)(=O)c3cc(Cl)cc(Cl)c3)C(=O)O)cc2)c(Cl)c1	%	61
